target: PCP receptor (binding of the PCP ligand 3H-TCP); assay: Receptor Binding Assay: inhibition of 3H-TCP binding in frozen brain sections; conditions: frozen brain sections (10 microns), 20 nM 3H-TCP, 45 min at 4° C., Scatchard/Rosenthal analysis

- Compound: "CNC1(C)C2CCC(C2)C1(C)C (stereo not shown) [mecamylamine]"
  Ki / µM: 122
